Cited source: the supplement of paper PMC10307832

System: NCI-H2405
Experiment: relative viability (nuclei count vs DMSO), 5 days (fraction); higher = more cells survive
Conditions: first compound 0.04 µM
Quick reference for relative viability among some compounds
Number only, no unit.

Problem: # value lookup — system NCI-H2405, readout relative viability, item Cc1sc2c(c1C)C(c1ccc(Cl)cc1)=N[C@@H](CC(=O)OC(C)(C)C)c1nnc(C)n1-2 [JQ1] + CC(=O)c1c(C)c2cnc(Nc3ccc(N4CCNCC4)cn3)nc2n(C2CCCC2)c1=O [Palbociclib] (partner 0.5 µM)
Solution: 0.571

Problem: # value lookup — system NCI-H2405, readout relative viability, item Cc1sc2c(c1C)C(c1ccc(Cl)cc1)=N[C@@H](CC(=O)OC(C)(C)C)c1nnc(C)n1-2 [JQ1] + C[C@@H](Oc1cc(-c2cnn(C3CCNCC3)c2)cnc1N)c1c(Cl)ccc(F)c1Cl [Crizotinib] (partner 1 µM)
Solution: 0.829

Problem: # value lookup — system NCI-H2405, readout relative viability, item Cc1sc2c(c1C)C(c1ccc(Cl)cc1)=N[C@@H](CC(=O)OC(C)(C)C)c1nnc(C)n1-2 [JQ1] + CC(=O)Nc1cccc(-n2c(=O)n(C3CC3)c(=O)c3c(Nc4ccc(I)cc4F)n(C)c(=O)c(C)c32)c1 [Trametinib] (partner 0.02 µM)
Solution: 0.627

Problem: # value lookup — system NCI-H2405, readout relative viability, item Cc1sc2c(c1C)C(c1ccc(Cl)cc1)=N[C@@H](CC(=O)OC(C)(C)C)c1nnc(C)n1-2 [JQ1] + COc1cc2c(Oc3ccc(NC(=O)C4(C(=O)Nc5ccc(F)cc5)CC4)cc3F)ccnc2cc1OCCCN1CCOCC1 [Foretinib] (partner 0.25 µM)
Solution: 1.08

Problem: # value lookup — system NCI-H2405, readout relative viability, item Cc1sc2c(c1C)C(c1ccc(Cl)cc1)=N[C@@H](CC(=O)OC(C)(C)C)c1nnc(C)n1-2 [JQ1] + C[C@]1(O)C[C@@H](c2nc(-c3ccc4ccc(-c5ccccc5)nc4c3)c3c(N)nccn32)C1 [Linsitinib] (partner 1 µM)
Solution: 0.919
